- Test system: mouse partial sciatic nerve ligation model
- Experiment Description: von Frey test in mouse partial sciatic nerve ligation model (Seltzer model)
- Format: in vivo, ICR mice
- Condition Label: Mus musculus, po, 1 h, dose 10 mg/kg oral, relative to vehicle and sham operation groups, read-out: Score Improvement

Molecule: CCc1ccc(-c2cc(C3(O)CCC(O)CC3)nn2-c2ccc(OC)cc2)cc1 (centres unmarked) [Compound 48]
Experimental System: mouse partial sciatic nerve ligation model
inhibition in vivo at 10 mg/kg, %: 83

Molecule: COc1ccc(-c2cc(C3(O)CCC(O)CC3)nn2-c2ccc(OC)cc2)cc1 (centres unmarked) [Compound 8]
Experimental System: mouse partial sciatic nerve ligation model
inhibition in vivo at 10 mg/kg, %: 70

Molecule: COc1ccc(-n2nc(C3(O)CCC(O)CC3)cc2-c2ccc(C)cc2)cc1F (centres unmarked) [Compound 54]
Experimental System: mouse partial sciatic nerve ligation model
inhibition in vivo at 10 mg/kg, %: 83

Molecule: COc1ccc(-n2nc(C3(O)CCC(O)CC3)cc2-c2ccc(C)nc2)cc1 (centres unmarked) [Compound 15]
Experimental System: mouse partial sciatic nerve ligation model
inhibition in vivo at 10 mg/kg, %: 84

Molecule: COc1ccc(-c2nc(C3(O)CCC(O)CC3)oc2-c2ccc(OC)cc2)cc1 (centres unmarked) [Compound 43]
Experimental System: mouse partial sciatic nerve ligation model
inhibition in vivo at 10 mg/kg, %: 100

These measurements were taken from patent US8598212B2.
